- target.desc: Transient receptor potential cation channel subfamily V member 1 (Homo sapiens, UniProt Q8NER1)
- Sequence (Q8NER1 whole entry): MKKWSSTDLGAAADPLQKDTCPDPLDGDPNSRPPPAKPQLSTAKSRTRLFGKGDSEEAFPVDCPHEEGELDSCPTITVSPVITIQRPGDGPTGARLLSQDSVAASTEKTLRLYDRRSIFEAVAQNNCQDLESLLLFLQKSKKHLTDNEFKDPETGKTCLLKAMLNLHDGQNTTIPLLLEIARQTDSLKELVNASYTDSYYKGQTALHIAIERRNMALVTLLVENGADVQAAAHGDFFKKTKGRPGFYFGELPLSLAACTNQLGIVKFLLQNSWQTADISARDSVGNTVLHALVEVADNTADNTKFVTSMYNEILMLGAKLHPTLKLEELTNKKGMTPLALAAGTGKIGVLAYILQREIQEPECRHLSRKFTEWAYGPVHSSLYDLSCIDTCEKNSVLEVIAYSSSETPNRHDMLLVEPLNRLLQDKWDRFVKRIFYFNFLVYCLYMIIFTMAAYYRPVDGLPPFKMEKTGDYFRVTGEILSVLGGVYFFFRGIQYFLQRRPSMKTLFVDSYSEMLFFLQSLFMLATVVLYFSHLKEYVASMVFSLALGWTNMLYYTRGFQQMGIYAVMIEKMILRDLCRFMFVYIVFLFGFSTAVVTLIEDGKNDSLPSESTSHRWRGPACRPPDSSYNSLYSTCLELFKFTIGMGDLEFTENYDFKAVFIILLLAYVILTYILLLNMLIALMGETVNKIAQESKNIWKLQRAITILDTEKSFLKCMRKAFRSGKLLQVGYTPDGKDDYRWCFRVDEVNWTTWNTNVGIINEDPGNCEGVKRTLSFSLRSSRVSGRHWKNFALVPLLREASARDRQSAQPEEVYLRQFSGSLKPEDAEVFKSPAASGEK
- assay.procedure: Antagonist activity at human TRPV1 expressed in CHO cells assessed as inhibition of NADA-induced intracellular calcium level preincubated with cells followed by NADA addition by Fluo-4 dye based FLIPR assay
reported.endpoint: Ki (nM)
Enter your answer as a number in nM; do not include the unit.

// lookup Ki for C[C@H](C(=O)NCc1cc(C(C)(C)C)nn1-c1cccc(Cl)c1)c1ccc(NS(C)(=O)=O)c(F)c1
0.04

* * *

- target.desc: Transient receptor potential cation channel subfamily V member 1 (Homo sapiens)
- assay.procedure: Antagonist activity at human TRPV1 expressed in CHO cells assessed as inhibition of capsaicin-induced intracellular calcium level preincubated for 6 mins followed by capsaicin addition by Fluo-4 dye based FLIPR assay
- Type: cell-based
- measurement.parameters: read-out: Ki
pKi: −log10 of the molar value.
Assign fulfilled to entries whose pKi meets or exceeds 8; assign not fulfilled to the rest.

As a guide, the following entries are already answered.
[[record]]
compound = "Cc1ccc(/C=C/c2ccc(-n3nc(C(C)(C)C)cc3CNC(=O)C(C)c3ccc(NS(C)(=O)=O)c(F)c3)cc2)cc1 (configuration not stated)"
assigned_label = "not fulfilled"

[[record]]
compound = "CCCCCCn1nc(C(C)(C)C)cc1CNC(=O)C(C)c1ccc(NS(C)(=O)=O)c(F)c1 (configuration not stated)"
assigned_label = "not fulfilled"

[[record]]
compound = "C[C@H](C(=O)NCc1cc(C(C)(C)C)nn1-c1ccc(F)c(Cl)c1)c1ccc(NS(C)(=O)=O)c(F)c1"
assigned_label = "fulfilled"

[[record]]
compound = "CCC/C=C/n1nc(C(C)(C)C)cc1CNC(=O)C(C)c1ccc(NS(C)(=O)=O)c(F)c1 (configuration not stated)"
assigned_label = "fulfilled"

[[record]]
compound = "CC(C(=O)NCc1cc(C(F)(F)F)nn1-c1ccc(Cl)cc1)c1ccc(NS(C)(=O)=O)c(F)c1 (configuration not stated)"
assigned_label = "fulfilled"


Now turn to the next compound.
Say whether CCCCCn1nc(C(C)(C)C)cc1CNC(=O)C(C)c1ccc(NS(C)(=O)=O)c(F)c1 (configuration not stated) shows pKi of 8 or more.
not fulfilled
